Test system: NCI-H23 lung
Assay: NCI-60 one-dose screen, 48 h
Settings: 10 µM
About 83,000 compounds went through this panel and 20% of them were active in at least one assay; those are over-represented in the sample as a whole. The source made the active and inactive calls. Rule for the calls: active = growth percent below 10; inactive = the rest.
Select the correct class. Options are t (active), f (inactive) and nothing else.

Entry CCCCOc1ccc(NC(=O)Nc2nnc(C)s2)cc1 : call = ?
f

Then what about the compound CCCC#CCN(CC)CC ?
f

Then what about the compound N#CCCN1C/C(=C/c2ccc(Br)cc2)C(=O)/C(=C/c2ccc(Br)cc2)C1 ?
t

Then what about the compound COc1cc2c(cc1OCCCN1CCN(c3ncnc4ccccc34)CC1)N=CC1CCCN1C2=O (configuration not stated) ?
t

Then what about the compound Nc1ncn(C2OC(CO)C(O)C2O)c(=O)n1 (configuration not stated) ?
f

Then what about the compound Cc1cc(Cl)nc(N(CCCNc2ccnc3cc(Cl)ccc23)Cc2cccs2)n1 ?
t

Then what about the compound CC(C)=CCc1ccc(O)c(=O)cc1C(C)C ?
f

Then what about the compound O=C(N/N=C\c1cc(Cl)ccc1[N+](=O)[O-])c1ccco1 ?
f

Then what about the compound CCCCCCN1CCN(Cc2ccc(N(CC)CC)cc2)C(=O)C1=O ?
f

Then what about the compound Cc1cccc2c(NCCN(C)C)c3cccc(C(=O)NCCN(C)C)c3nc12 ?
t

Then what about the compound COc1cc(CNc2ccccc2C(=O)N2CCN(C(=O)c3cc(-c4cc(OC)c(OC)c(OC)c4)n4nc(-c5ccccc5)cc4n3)CC2)cc(OC)c1OC ?
f

Then what about the compound COc1cccc(NC(=O)c2sc3nc4c(cc3c2N)C(O)CCC4)c1 (configuration not stated) ?
f

Then what about the compound COc1ccc(-c2nn(-c3cccc(NC(=O)Nc4cc(C(F)(F)F)cc(C(F)(F)F)c4)c3)cc2-c2ccncc2)cc1Cl ?
t

Then what about the compound N#Cc1cc(-c2cc3ccccc3o2)oc1N ?
f

Then what about the compound COc1ccc(-c2cc(/C=C3\C(=O)Nc4ccc(Cl)cc43)[nH]n2)cc1OC ?
f

Then what about the compound CN(C)CCNC(=O)c1cccn2c(=O)c3cc4ccccc4cc3nc12 ?
t

Then what about the compound CN(C)c1ccc(-c2cc(-c3cccc(NS(C)(=O)=O)c3)nc(N)c2C#N)cc1 ?
f

* * *

System: M14 melanoma
Test: NCI-60 one-dose screen, 48 h
Details: 10 µM
This is part of a sample that, as a whole, favours compounds with a hit. Of some 83,000 tested, about 20% had one in any assay. Active and inactive are the calls of the source. The calls were made as follows: active = growth percent below 10; inactive = the rest.
Select the correct class. Options are 1.0 = active, 0.0 = inactive and nothing else.

Entry CC1(C)OC2=C(CC1Br)C(=O)C(=O)c1ccccc12 (configuration not stated) : call = ?
1.0

Then what about the compound Cc1cccc2c(NCCN(C)C)c3cccc(C(=O)NCCN(C)C)c3nc12 ?
0.0

Then what about the compound N=C(N)c1ccc(-c2ccc(-c3cccs3)s2)cc1 ?
0.0

Then what about the compound COc1ccc(-c2nn(-c3cccc(NC(=O)Nc4cccc(C(F)(F)F)c4)c3)cc2-c2ccncc2)cc1Cl ?
1.0

Then what about the compound CCC(=O)N1C/C(=C/c2ccc(Br)cc2)C(=O)/C(=C/c2ccc(Br)cc2)C1 ?
1.0

Then what about the compound CN1c2ccccc2[C@]2(Cc3ccccc3)Cc3ccccc3N[C@H]12 ?
0.0

Then what about the compound COC(=O)C1(C)Cc2cc(OC(C)=O)c(OC(C)=O)cc2N1 (configuration not stated) ?
0.0

* * *

Could you please report measured growth for the items listed next?
System: MALME-3M melanoma
Experiment: NCI-60 one-dose screen, 48 h (100 = growth as untreated, 0 = no growth, -100 = all killed)
Conditions: 10 µM
This is part of a sample that, as a whole, favours compounds with a hit. Of some 83,000 tested, about 20% had one in any assay. Calls of active or inactive are those of the source. Rule for the calls: active = growth percent below 10; inactive = the rest.

Field request: growth | item: CSc1nc(=O)n(Cc2ccc(Cl)cc2)c(=O)[nH]1
105% (inactive)

Then what about the compound O=C1/C(=C\c2ccc(F)cc2)CN(C(=O)c2ccccc2)C/C1=C\c1ccc(F)cc1 ?
8.3% (active)

Then what about the compound CN(C)CCCn1c(=O)c2ccccc2c2cnc3[nH]ccc3c21 ?
-25.1% (active)

Then what about the compound CC(=O)N1C/C(=C/c2ccc(Cl)cc2)C(=O)/C(=C/c2ccc(Cl)cc2)C1 ?
-56.4% (active)

Then what about the compound Cc1ccc(N=Nc2c(N)nc(N)[nH]c2=O)cc1C ?
89.9% (inactive)

Then what about the compound COc1cc(-c2cc(/C=C/C(=O)c3ccc(F)c(F)c3)[nH]n2)cc(OC)c1OC ?
72.5% (inactive)

Then what about the compound COc1cc(-c2cc(/C=C3\C(=O)Nc4ccccc43)[nH]n2)cc(OC)c1OC ?
1.21% (active)

Then what about the compound COc1ccc(-c2nc3ccccn3c2-c2nnc(-c3cc(OC)c(OC)c(OC)c3)o2)cc1 ?
51.5% (inactive)

Then what about the compound COc1ccc(-c2nn(-c3cccc(NC(=O)c4ccc5c(c4)OCCO5)c3)cc2-c2ccncc2)cc1Cl ?
4.38% (active)

Then what about the compound O=C(N/N=C/c1ccccc1)C(Oc1ccccc1)c1ccccc1 (configuration not stated) ?
71.8% (inactive)

Then what about the compound COc1ccc(Cl)cc1C(=O)Nc1nc2ccc(Cl)cc2s1 ?
83.3% (inactive)

Then what about the compound CCCCC(CCCCCC(CCCC)NCc1ccc2c(c1)OCO2)NCc1ccc2c(c1)OCO2 (configuration not stated) ?
-69.3% (active)

* * *

Tested on: NCI-H522 lung
Assay: NCI-60 one-dose screen, 48 h (100 = growth as untreated, 0 = no growth, -100 = all killed)
Details: 10 µM
Protocol: Growth inhibition of the NCI-H522 human Non-Small Cell Lung tumor cell line is measured as a screen for anti-cancer activity. Cells are grown in 96 well plates and exposed to the test compound for 48 hours. Compounds are tested at a single concentration, which is 10^-5 M for most compounds. The reported endpoint is percent growth (GI% or GIPRCNT), where numbers from 0 - 100% represent growth inhibition, and numbers from -100% - 0 represent cell death. […]
This is part of a sample that, as a whole, favours compounds with a hit. Of some 83,000 tested, about 20% had one in any assay.
Could you please report measured growth for the items listed next?
# unit: % | format: bare number

Field request: growth | item: COc1cc(/C=C2\Oc3cc(OCC(=O)c4ccccc4)ccc3C2=O)cc(OC)c1OC
105

Then what about the compound c1ccc(C(NC2CC3CCC2C3)c2ccccc2)cc1 (stereo not given) ?
85.5

Then what about the compound O=c1oc2cc(OS(=O)(=O)c3ccccc3)ccc2c2c1CCCCC2 ?
66.4

Then what about the compound O=C(CSSCC(=O)c1ccc(Cl)cc1)c1ccc(Cl)cc1 ?
58

Then what about the compound CCOC(=O)N/N=C\C(C)=N\NC(=O)OCC ?
89.2

Then what about the compound CC(=O)c1cc(Br)ccc1O ?
87.4

Then what about the compound COc1ccccc1CNCCCN1C(=O)c2ccc3c4c(ccc(c24)C1=O)C(=O)N(CCCN)C3=O ?
-79.1

Then what about the compound COc1ccc2c(c1)N(CCO)C1=C(C(=O)OC1)C2c1ccc(OC)c(OC)c1 (stereo not given) ?
-12.4

Then what about the compound O=c1[nH]c2ccc(Cl)cc2c2ccccc12 ?
109

Then what about the compound COC(=O)c1c(-c2ccccc2)csc1NC(=O)c1c(-c2ccccc2)noc1C ?
36.1

Then what about the compound Cc1cc(N(CCCNc2ccnc3cc(Cl)ccc23)Cc2ccc3c(c2)OCO3)nc(N2CCCCC2)n1 ?
-43.9

Then what about the compound O=C(Nc1ccncc1)C(=O)c1cn(S(=O)(=O)c2cc(Cl)cc(Cl)c2)c2ccccc12 ?
40.2

Then what about the compound Nc1c(C(=O)Nc2ccccc2)sc2nc3c(cc12)CCCC3 ?
29.7

Then what about the compound NC1=NC(=O)C(c2ccccc2)(c2ccccc2)S1 ?
102

Then what about the compound Cc1ccc(S(=O)(=O)Oc2ccc3c4c(c(=O)oc3c2)CCCCC4)cc1 ?
57.9

Then what about the compound C[C@]12CC[C@@H]3c4ccc(O)cc4C[C@@H](O)[C@H]3[C@@H]1CC[C@@H]2O ?
106

Then what about the compound O=[N+]([O-])c1ccc(Oc2cc(Cl)c(Cl)cc2Cl)c(C(F)(F)F)c1 ?
87.1

Then what about the compound CCOC(=O)C1CCc2c(ccc3ccccc23)N1CCC#N (stereo not given) ?
93.3

Then what about the compound O=C(NC(Cc1ccc(O)cc1)C(=O)N=Nc1c(O)[nH]c2ccccc12)c1ccccc1 (stereo not given) ?
97.1

Then what about the compound COc1ccc(Nc2ccnc(NCCNc3ccnc4cc(Cl)ccc34)n2)cc1 ?
43.9

Then what about the compound N=C(N)c1ccc(-c2ccc(-c3cccs3)o2)cc1 ?
61.9

Then what about the compound CCN(CC)CCCC(C)Nc1ccc2ccc(Cl)cc2n1 (stereo not given) ?
92

Then what about the compound Cc1cs/c(=N\NC(=O)c2cc(-c3cc4ccccc4o3)nn2-c2ccccc2)n1-c1ccccc1 ?
86.4

Then what about the compound C[N+](C)(C)c1ncnc2nc[nH]c12 ?
97.1

Then what about the compound CC1(C)Cc2c(sc3ncn4nc(-c5ccc(O)cc5)nc4c23)CO1 ?
53.5

Then what about the compound CC(C)=CCc1cc(O)cc2c1OC(C=C(C)C)C1=C2C(=O)C2=C(C1=O)S(=O)(=O)CCN2 (stereo not given) ?
7.19

Then what about the compound O=[N+]([O-])c1cccc(N=Cc2ccc3c(c2)OCO3)c1 ?
89.8

Then what about the compound CSC1=NCCCC1 ?
102

Then what about the compound CSc1cc(SC)ncn1 ?
100

Then what about the compound COc1cc(-c2nc(-c3nnc(-c4ccc(F)c(Cl)c4)o3)c3ccccn23)cc(OC)c1OC ?
5.92

Then what about the compound CC(C)(C)NC/C(=C\c1ccccc1)C(=O)c1ccccc1 ?
-92.5

Then what about the compound O=C(Nc1ccc(Cl)cc1)N1NC(c2ccc(Cl)cc2)C=C1c1ccccc1 (stereo not given) ?
98.4

Then what about the compound CCCCCCCCCCCCCCCCCC(=O)OCCCCCCC ?
107

Then what about the compound COc1ccc2c(c1)O/C(=C\c1ccc([N+](=O)[O-])o1)C2=O ?
-63

Then what about the compound COC(=O)C(C(C[N+](=O)[O-])c1ccccc1)=P(c1ccccc1)(c1ccccc1)c1ccccc1 (stereo not given) ?
83.3

Then what about the compound CCCCCCCCCCCCCCCC(=O)OC1[C@@H](OC(=O)CCCCCCCCCCCCCCC)[C@@H](C(=O)N[C@@H](CCCCN)C(=O)OC)O[C@H]1n1cnc2c(=O)[nH]c(NC(=O)C(C)C)nc21 (stereo not given in full) ?
84.4

Then what about the compound COc1ccc(Nc2ncnc3c2c(SC)nn3-c2ccccc2)cc1 ?
61.3

Then what about the compound O=c1cc(-c2ccccc2)[nH]n1-c1nc2ccccc2[nH]1 ?
21.6

Then what about the compound Cn1c([N+](=O)[O-])cnc1/C=C1\Oc2ccccc2C1=O ?
-48.5

Then what about the compound C#Cc1ccc(-n2c(/C=C/c3ccc4ccccc4c3)nc3ncccc3c2=O)cc1 ?
8.75
